# target of assay: AhR (Homo sapiens)
# measurement notes: In Vitro Assay 1: XRE-luciferase reporter assay, antagonism in human cell line (HepG2)
# conditions used: Assay 1: AhR-Luc Human Antagonism (IC50, nM), unmarked values: kynurenine 200 μM, 6 hours
metric name: IC50

INSERT INTO results (molecule, result) VALUES
  ('O[C@H]1CON(c2cc(-c3ccc(C(F)(F)F)cc3)nc(-c3cccnc3)n2)C1 [Example 314]', '< 10 nM'),
  ('OCC1CN(c2cc(-c3ccc(Cl)cc3)nc(-c3cccnc3)n2)C1 [Example 320]', '10 to 100 nM'),
  ('O=S(=O)(C1CC1)N1CCN(c2cc(-c3ccc(Cl)cc3)nc(-c3cccnc3)n2)CC1 [Example 328]', '10 to 100 nM');

Continue with the molecule presented below.
response.value for OCC1CCN(c2cc(-c3ccc(C(F)(F)F)cc3)nc(-c3cccnc3)n2)CC1 [Example 226] (field: IC50) = < 10 nM

====

# target of assay: AhR (Homo sapiens, UniProt P35869)
# Sequence (P35869 11-848): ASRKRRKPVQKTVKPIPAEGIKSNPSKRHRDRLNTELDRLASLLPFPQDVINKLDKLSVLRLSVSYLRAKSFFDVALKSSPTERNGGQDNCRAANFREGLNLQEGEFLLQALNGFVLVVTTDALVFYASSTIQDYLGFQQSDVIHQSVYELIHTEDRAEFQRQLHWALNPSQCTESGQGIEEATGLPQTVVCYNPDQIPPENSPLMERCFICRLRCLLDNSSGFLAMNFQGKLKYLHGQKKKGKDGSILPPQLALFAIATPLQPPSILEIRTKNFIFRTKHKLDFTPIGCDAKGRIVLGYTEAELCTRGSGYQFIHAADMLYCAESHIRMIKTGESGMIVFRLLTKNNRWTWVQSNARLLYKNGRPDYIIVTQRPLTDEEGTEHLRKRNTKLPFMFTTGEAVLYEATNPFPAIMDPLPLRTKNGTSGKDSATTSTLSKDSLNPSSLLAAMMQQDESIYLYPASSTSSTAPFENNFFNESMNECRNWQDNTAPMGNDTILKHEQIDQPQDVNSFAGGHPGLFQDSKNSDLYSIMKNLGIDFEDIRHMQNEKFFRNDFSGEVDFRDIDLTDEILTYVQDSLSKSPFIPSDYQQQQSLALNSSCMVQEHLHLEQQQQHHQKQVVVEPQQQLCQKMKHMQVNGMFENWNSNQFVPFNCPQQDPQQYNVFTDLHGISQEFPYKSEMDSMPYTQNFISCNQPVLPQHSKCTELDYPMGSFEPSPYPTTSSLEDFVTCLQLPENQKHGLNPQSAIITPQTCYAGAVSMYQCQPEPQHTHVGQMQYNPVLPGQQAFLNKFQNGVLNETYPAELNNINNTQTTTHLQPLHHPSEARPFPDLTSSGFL
# measurement notes: In Vitro Assay 1: XRE-luciferase reporter assay, antagonism in human cell line (HepG2)
# conditions used: Assay 1: AhR-Luc Human Antagonism (IC50, nM), values marked *: kynurenine 50 μM, 6 hours
Here the recorded IC50 is given for each entry.

INSERT INTO results (compound, metric_name, result) VALUES
  ('O[C@@H]1CCCN(c2cc(-c3ccc(Cl)cc3)nc(-c3cccnc3)n2)C1 [Example 38]', 'IC50', '< 10 nM'),
  ('O[C@@H]1CCC[C@H]1Nc1cc(-c2ccc(Cl)cc2)nc(-c2cccnc2)n1 (relative stereo) [Example 68]', 'IC50', '10 to 100 nM'),
  ('CCCCNc1cc(-c2ccc(Cl)cc2)nc(-c2cccnc2)n1 [Example 23]', 'IC50', '> 1000 nM'),
  ('C[C@@H]1CNCCN1c1cc(-c2ccc(Cl)cc2)nc(-c2cccnc2)n1 [Example 76]', 'IC50', '> 1000 nM'),
  ('OCCCNc1cc(-c2ccc(Cl)cc2)nc(-c2cccnc2)n1 [Example 7]', 'IC50', '> 1000 nM');

Field: next compound
response.value for O[C@@H]1CN(c2cc(-c3ccc(Cl)cc3)nc(-c3cccnc3)n2)C[C@@H]1F [Example 235] (field: IC50) = < 10 nM

====

Overview of reported IC50 across a group of compounds:
# target of assay: AhR (Homo sapiens)
# Sequence (P35869 11-848): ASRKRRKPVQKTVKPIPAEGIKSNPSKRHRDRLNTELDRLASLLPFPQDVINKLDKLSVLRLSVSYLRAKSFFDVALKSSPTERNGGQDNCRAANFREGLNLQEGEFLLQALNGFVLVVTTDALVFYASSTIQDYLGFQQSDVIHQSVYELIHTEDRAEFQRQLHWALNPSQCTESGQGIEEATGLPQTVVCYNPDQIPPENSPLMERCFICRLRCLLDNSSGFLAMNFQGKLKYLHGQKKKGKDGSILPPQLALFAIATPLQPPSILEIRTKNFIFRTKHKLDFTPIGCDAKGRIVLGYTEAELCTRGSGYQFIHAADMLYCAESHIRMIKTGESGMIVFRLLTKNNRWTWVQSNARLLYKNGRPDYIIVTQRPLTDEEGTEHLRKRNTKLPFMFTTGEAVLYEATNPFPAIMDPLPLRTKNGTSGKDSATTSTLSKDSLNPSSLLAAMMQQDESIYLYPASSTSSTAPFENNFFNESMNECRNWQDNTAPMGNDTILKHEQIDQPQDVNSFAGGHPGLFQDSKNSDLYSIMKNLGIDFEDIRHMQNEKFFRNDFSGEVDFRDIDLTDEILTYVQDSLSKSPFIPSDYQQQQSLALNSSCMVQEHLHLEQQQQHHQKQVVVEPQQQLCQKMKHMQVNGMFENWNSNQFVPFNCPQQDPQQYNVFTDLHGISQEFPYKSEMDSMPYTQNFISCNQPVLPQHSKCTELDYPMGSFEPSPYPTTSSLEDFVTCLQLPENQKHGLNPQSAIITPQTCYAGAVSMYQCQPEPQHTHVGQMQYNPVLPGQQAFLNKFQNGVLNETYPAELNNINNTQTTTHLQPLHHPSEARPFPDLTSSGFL
# measurement notes: In Vitro Assay 1: XRE-luciferase reporter assay, antagonism in human cell line (HepG2)
# conditions used: Assay 1: AhR-Luc Human Antagonism (IC50, nM), values marked *: kynurenine 50 μM, 6 hours

Some compounds with known IC50 results, for comparison:
INSERT INTO assay_data (compound, result) VALUES
  ('CC(=O)N1CCN(c2cc(-c3ccc(Cl)cc3)nc(-c3cccnc3)n2)CC1 [Example 108]', '< 10 nM'),
  ('FC(F)(F)c1cccc(N2CCN(c3cc(-c4ccc(Cl)cc4)nc(-c4cccnc4)n3)CC2)c1 [Example 117]', '100 to 1000 nM');

Consider the additional compound presented here.
So the reported IC50 for Clc1ccc(-c2cc(NC3CCNC3)nc(-c3cccnc3)n2)cc1 (stereo not drawn) [Example 126] , on AhR (Homo sapiens), turned out to be > 1000 nM

====

# target of assay: AhR (Homo sapiens)
# Sequence (P35869 11-848): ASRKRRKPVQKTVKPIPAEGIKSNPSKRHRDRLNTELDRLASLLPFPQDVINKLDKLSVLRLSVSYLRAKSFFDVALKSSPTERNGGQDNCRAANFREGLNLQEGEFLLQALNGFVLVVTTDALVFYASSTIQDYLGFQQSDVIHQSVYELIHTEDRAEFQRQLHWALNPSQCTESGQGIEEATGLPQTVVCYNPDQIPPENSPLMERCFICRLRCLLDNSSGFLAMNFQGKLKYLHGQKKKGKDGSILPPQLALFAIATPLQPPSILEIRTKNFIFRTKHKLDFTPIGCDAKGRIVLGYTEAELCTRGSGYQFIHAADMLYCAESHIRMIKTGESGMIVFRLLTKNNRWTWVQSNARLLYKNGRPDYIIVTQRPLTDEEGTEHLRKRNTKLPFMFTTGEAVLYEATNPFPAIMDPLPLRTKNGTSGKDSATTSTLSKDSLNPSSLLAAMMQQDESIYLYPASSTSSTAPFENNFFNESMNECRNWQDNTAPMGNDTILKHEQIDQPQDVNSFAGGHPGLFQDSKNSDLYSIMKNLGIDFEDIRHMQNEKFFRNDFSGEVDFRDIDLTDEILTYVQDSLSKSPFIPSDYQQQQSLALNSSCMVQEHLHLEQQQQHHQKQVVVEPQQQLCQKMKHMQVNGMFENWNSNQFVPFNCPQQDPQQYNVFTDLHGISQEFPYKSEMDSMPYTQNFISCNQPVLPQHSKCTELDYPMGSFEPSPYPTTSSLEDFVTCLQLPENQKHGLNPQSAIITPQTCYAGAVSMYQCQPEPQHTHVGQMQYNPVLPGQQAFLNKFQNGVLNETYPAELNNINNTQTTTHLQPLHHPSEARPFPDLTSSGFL
# measurement notes: In Vitro Assay 1: XRE-luciferase reporter assay, antagonism in human cell line (HepG2)
# conditions used: Assay 1: AhR-Luc Human Antagonism (IC50, nM), unmarked values: kynurenine 200 μM, 6 hours
metric name: IC50

Consider the reported IC50 for these compounds:
INSERT INTO measurements (compound_structure, target_of_assay, result) VALUES
  ('OC[C@H]1CCN(c2cc(-c3ccc(Cl)cc3)nc(-c3cccnc3)n2)C[C@H]1F', 'AhR (Homo sapiens)', '10 to 100 nM'),
  ('O=C1Cc2cc(-c3cc(N4CCC(CO)CC4)nc(-c4cccnc4)n3)ccc2N1', 'AhR (Homo sapiens)', '> 1000 nM'),
  ('CS(=O)(=O)N1CCN(c2cc(-c3ccc(C(F)(F)F)cc3)nc(-c3cccnc3)n2)CC1', 'AhR (Homo sapiens)', '> 1000 nM'),
  ('O=S(=O)(CCF)N1CCN(c2cc(-c3ccc(Cl)cc3)nc(-c3cccnc3)n2)CC1', 'AhR (Homo sapiens)', '< 10 nM');

The compound identified as O[C@H]1CCN(c2cc(-c3ccc(C(F)(F)F)cc3)nc(-c3cnsc3)n2)C1 registered its IC50 at < 10 nM

Lab note: CC(=O)N[C@H]1CN(c2cc(-c3ccc(Cl)cc3)nc(-c3cccnc3)n2)C[C@H]1O gave IC50 of > 1000 nM

Form: compound = Oc1ncccc1-c1nc(-c2ccc(C(F)(F)F)cc2)cc(N2CC[C@H](O)C2)n1 ; IC50 = < 10 nM
